- Test system: PHKG2;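 further: KINOMEscan kinase panel screen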
- MEASUREMENT_CONDITIONS: concentration: 1 μM, replicates: in singlicate; n = 1
ENDPOINT_NAME: %Inh (%)

Clc1ccc(-c2cc(-c3c[nH]nc3-c3ccccn3)ccn2)cc1	0
O=c1cc(N2CCOCC2)nc2n(Cc3cccc(Cl)c3)ccn12	0
Fc1cccc(COc2ccc(Nc3ncnc4nn5ccccc5c34)cc2Cl)c1	0
Cl.Fc1ccccc1COc1ccc(Nc2ncnc3ccc(-c4nnc(C(F)(F)F)o4)cc23)cc1Cl	7
Cc1cccc(-c2nc(Nc3ccc4[nH]nnc4c3)c3ccccc3n2)n1	0
Fc1ccc(-c2ncn(CCCNCc3ccccc3)c2-c2ccncc2)cc1	16
CSc1ccc(NC2=C(c3ccccc3Cl)C(=O)NC2=O)cc1	25
Cl.c1ccc(Cn2ncc3cc(Nc4ncnc5ccccc45)ccc32)cc1	0
Cc1cc(N2CCC(NS(=O)(=O)c3ccc(F)cc3)CC2)nc(Nc2cccc(C#N)c2)n1.O=C(O)C(F)(F)F	0
Cn1ccc2ncnc(Oc3ccc(NC(=O)Nc4cccnc4)c(Cl)c3)c21	0
Cl.Cn1ccc(-c2cccc(Nc3ccnc4cc(-c5nccs5)ccc34)c2)n1	0
CN1c2ccc(-c3ccc(C(=O)NCCO)cc3)cc2-c2[nH]ncc2S1(=O)=O	41
FC(F)(F)c1ccc(-c2nn3ncccc3c2-c2ccnc(Nc3cccc(C(F)(F)F)c3)n2)cc1	0
O=C(c1ccc(-c2cc(-c3c[nH]nc3-c3ccccn3)ccn2)cc1)N1CCCC1	19
CN1CCC(n2cnc(-c3ccc(F)cc3)c2-c2ccnc(NC3CCNCC3)n2)CC1	16
COC(=O)c1c(-c2ccccc2)c2cc(Cl)ccc2c(=O)n1Cc1ccc(S(C)(=O)=O)cc1	0
C[C@H]1CC[C@@H](C(=O)Nc2ccccc2)CN1c1cc(-c2ccc3c(N)n[nH]c3c2)nc(N)n1	0
CC(C)(C)c1ccc(-n2cnc3c(N)ncnc32)cc1	0
